Listed here: items and their measured TGI.
# Test system: RXF 393 renal
# TEST SUMMARY: NCI tumour cell line growth inhibition, 48 h

* Cc1ccc(Nc2nc(C)c(C(/C=C/c3ccc4c(c3)OCO4)=N/Nc3ccc([N+](=O)[O-])cc3[N+](=O)[O-])s2)c([N+](=O)[O-])c1 | > 100 µM
* Nc1nc(NCCOCP(=O)(O)O)c(N)c(=O)[nH]1 | > 100 µM
* COC(=O)CNCC1OC2OC(C)(C)OC2C1N=[N+]=[N-] (stereo unspecified) | > 100 µM
* CCOC(=O)/C=C1\Oc2ccccc2C1(C)O (stereo unspecified) | > 100 µM

Lab note: compound NCCC1([N+](=O)[O-])CCNCC1 tested on RXF 393 renal; recorded TGI was > 100 µM

Lab note: compound CN(CCO)/N=N/c1nc[nH]c1C(N)=O tested on RXF 393 renal; recorded TGI was > 100 µM

Lab note: compound CCSC12CC3c4cccc5c4C(CN5C(=O)c4ccccc4)CC3(O1)N(C)C2=O (stereo unspecified) tested on RXF 393 renal; recorded TGI was > 100 µM

Lab note: compound CCOC(=O)NC(=S)NC(C)c1ccccc1 (stereo unspecified) tested on RXF 393 renal; recorded TGI was > 100 µM

Lab note: compound CC(C)(CN)SCc1ccccc1 tested on RXF 393 renal; recorded TGI was > 100 µM

Lab note: compound COc1ccc(C2C(Cl)C(=O)N2NC(=O)c2ccccc2O)cc1OC (stereo unspecified) tested on RXF 393 renal; recorded TGI was > 100 µM

Lab note: compound O=C1NC(c2ccccc2)N=C2Oc3ccccc3C=C12 (stereo unspecified) tested on RXF 393 renal; recorded TGI was > 100 µM

Lab note: compound Cc1nc2nn(C)cc2c(=O)n1/N=C/c1ccccc1 tested on RXF 393 renal; recorded TGI was > 100 µM

Lab note: compound Nc1ccc(C2=Nc3ccccc3SC(c3ccccc3O)C2)cc1 (stereo unspecified) tested on RXF 393 renal; recorded TGI was > 100 µM

Lab note: compound O=c1[nH]cnc2c1ncn2CCCCO tested on RXF 393 renal; recorded TGI was > 100 µM

Lab note: compound CCc1n[nH]c(=S)n1/N=C\c1ccc(-c2ccccc2[N+](=O)[O-])o1 tested on RXF 393 renal; recorded TGI was > 100 µM

Reference for the values: PubChem BioAssay (NCI)
